- Tested on: Hepatitis C virus
- PROTOCOL_TEXT: Antiviral activity against Hepatitis C virus genotype 1b I389luc-ubi-neo/NS3-3'/5.1 subgenomic replicon infected in human Huh5-2 cells after 4 days by luciferase assay
- Assay type: functional, cell-based, Hepacivirus hominis
- CONDITION_DESCRIPTION: Huh-5-2, 96 h
REPORTED_METRIC: EC50
Remember to put the unit after the number in your answer.

Please review the following examples before continuing.
{"COMPOUND": "CC(=O)CC[C@H]1C(=O)N[C@@H](C(C)C)C(=O)N[C@@H](Cc2cccc(O)c2)C(=O)N2CCCC(N2)C(=O)O[C@H](/C(C)=C/C=C/C(=O)Nc2ccc(-c3ccccc3)cc2)C/C=C/C=C/[C@H](O)[C@H](C)[C@H]1O (stereo in doubt)", "REPORTED_METRIC": "EC50", "MEASURED_RESULT": "208 nM"}
{"COMPOUND": "CCN(CC)C(=O)/C=C/C=C(\\C)[C@@H]1C/C=C/C=C/[C@H](O)[C@H](C)[C@@H](O)[C@@H](CCC(C)=O)C(=O)N[C@@H](C(C)C)C(=O)N[C@@H](Cc2cccc(O)c2)C(=O)N2CCCC(N2)C(=O)O1 (some centres undefined)", "REPORTED_METRIC": "EC50", "MEASURED_RESULT": "204 nM"}
{"COMPOUND": "CC(=O)CC[C@H]1C(=O)N[C@@H](C(C)C)C(=O)N[C@@H](Cc2cccc(O)c2)C(=O)N2CCCC(N2)C(=O)O[C@H](/C(C)=C/C=C/C(=O)N(C)C)C/C=C/C=C/[C@H](O)[C@H](C)[C@H]1O (some centres undefined)", "REPORTED_METRIC": "EC50", "MEASURED_RESULT": "349 nM"}

Determine from records and report EC50 for CC(=O)CC[C@H]1C(=O)N[C@@H](C(C)C)C(=O)N[C@@H](Cc2cccc(O)c2)C(=O)N2CCCC(N2)C(=O)O[C@H](/C(C)=C/C=C/C(=O)N(CC(C)C)CC(C)C)C/C=C/C=C/[C@H](O)[C@H](C)[C@H]1O (some centres undefined)
309 nM

###

I'd be grateful if you could share measured IC50 for these entries.
- TGT: UniProtKB P62937
- Sequence (P62937 whole entry): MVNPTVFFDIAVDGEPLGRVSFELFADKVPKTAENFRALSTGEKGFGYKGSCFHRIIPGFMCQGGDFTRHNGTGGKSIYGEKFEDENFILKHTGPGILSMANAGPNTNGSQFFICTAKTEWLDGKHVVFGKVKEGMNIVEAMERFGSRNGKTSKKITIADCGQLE
- PROTOCOL_TEXT: Inhibition of recombinant GST-tagged CypA (unknown origin)/HCV Con1 NS5A-His interaction after 16 hrs by ELISA
Answers are plain numbers, in nM.

{"MOLECULE": "CC(=O)CC[C@H]1C(=O)N[C@@H](C(C)C)C(=O)N[C@@H](Cc2cccc(O)c2)C(=O)N2CCCC(N2)C(=O)O[C@H](/C(C)=C/C=C/C(=O)N(C)c2ccccn2)C/C=C/C=C/[C@H](O)[C@H](C)[C@H]1O (some centres not stated)", "TGT": "UniProtKB P62937", "ENDPOINT_UNIT": "nM", "IC50": 330}
{"MOLECULE": "C=CCNC(=O)/C=C/C=C(\\C)[C@@H]1C/C=C/C=C/[C@H](O)[C@H](C)[C@@H](O)[C@@H](CCC(C)=O)C(=O)N[C@@H](C(C)C)C(=O)N[C@@H](Cc2cccc(O)c2)C(=O)N2CCCC(N2)C(=O)O1 (stereo in doubt)", "TGT": "UniProtKB P62937", "ENDPOINT_UNIT": "nM", "IC50": 360}
{"MOLECULE": "CC(=O)CC[C@H]1C(=O)N[C@@H](C(C)C)C(=O)N[C@@H](Cc2cccc(O)c2)C(=O)N2CCCC(N2)C(=O)O[C@H](/C(C)=C/C=C/C(=O)N(C)C2CCCCC2)C/C=C/C=C/[C@H](O)[C@H](C)[C@H]1O (some centres not stated)", "TGT": "UniProtKB P62937", "ENDPOINT_UNIT": "nM", "IC50": 420}
{"MOLECULE": "CC(=O)CC[C@H]1C(=O)N[C@@H](C(C)C)C(=O)N[C@@H](Cc2cccc(O)c2)C(=O)N2CCCC(N2)C(=O)O[C@H](/C(C)=C/C=C/C(=O)N2CCOCC2)C/C=C/C=C/[C@H](O)[C@H](C)[C@H]1O (some centres not stated)", "TGT": "UniProtKB P62937", "ENDPOINT_UNIT": "nM", "IC50": 330}

Required: IC50, one value per molecule below.
1. CC(=O)CC[C@H]1C(=O)N[C@@H](C(C)C)C(=O)N[C@@H](Cc2cccc(O)c2)C(=O)N2CCCC(N2)C(=O)O[C@H](/C(C)=C/C=C/C(=O)Nc2ccccn2)C/C=C/C=C/[C@H](O)[C@H](C)[C@H]1O (stereo in doubt)
2. CCN(CC)C(=O)/C=C/C=C(\C)[C@@H]1C/C=C/C=C/[C@H](O)[C@H](C)[C@@H](O)[C@@H](CCC(C)=O)C(=O)N[C@@H](C(C)C)C(=O)N[C@@H](Cc2cccc(O)c2)C(=O)N2CCCC(N2)C(=O)O1 (some centres not stated)

390
350

# return IC50 of CC(=O)CC[C@H]1C(=O)N[C@@H](C(C)C)C(=O)N[C@@H](Cc2cccc(O)c2)C(=O)N2CCCC(N2)C(=O)O[C@H](/C(C)=C/C=C/C(=O)NC(C)C)C/C=C/C=C/[C@H](O)[C@H](C)[C@H]1O (stereo in doubt) (system: UniProtKB P62937)
380

###

- PROTOCOL_TEXT: Selectivity index, ratio of CC50 for human Huh5-2 cells to EC50 for Hepatitis C virus genotype 1b I389luc-ubi-neo/NS3-3'/5.1 subgenomic replicon infected in human Huh5-2 cells
- Format: toxicity, cell-based, Huh-5-2
- CONDITION_DESCRIPTION: read-out: Ratio CC50/EC50
REPORTED_METRIC: selectivity ratio

{"MOLECULE": "CC(=O)CC[C@H]1C(=O)N[C@@H](C(C)C)C(=O)N[C@@H](Cc2cccc(O)c2)C(=O)N2CCCC(N2)C(=O)O[C@H](/C(C)=C/C=C/C(=O)N(C)C)C/C=C/C=C/[C@H](O)[C@H](C)[C@H]1O (some centres not stated)", "MEASURED_RESULT": "> 287"}
{"MOLECULE": "CC(=O)CC[C@H]1C(=O)N[C@@H](C(C)C)C(=O)N[C@@H](Cc2cccc(O)c2)C(=O)N2CCCC(N2)C(=O)O[C@H](/C(C)=C/C=C/C(=O)N(CC(C)C)CC(C)C)C/C=C/C=C/[C@H](O)[C@H](C)[C@H]1O (some centres not stated)", "MEASURED_RESULT": 6.8}
{"MOLECULE": "CC(=O)CC[C@H]1C(=O)N[C@@H](C(C)C)C(=O)N[C@@H](Cc2cccc(O)c2)C(=O)N2CCCC(N2)C(=O)O[C@H](/C(C)=C/C=C/C(=O)Nc2ccc(-c3ccccc3)cc2)C/C=C/C=C/[C@H](O)[C@H](C)[C@H]1O (stereo in doubt)", "MEASURED_RESULT": "> 481"}
{"MOLECULE": "CC(=O)CC[C@H]1C(=O)N[C@@H](C(C)C)C(=O)N[C@@H](Cc2cccc(O)c2)C(=O)N2CCCC(N2)C(=O)O[C@H](/C(C)=C/C=C/C(=O)N(C)c2ccccn2)C/C=C/C=C/[C@H](O)[C@H](C)[C@H]1O (some centres not stated)", "MEASURED_RESULT": "> 50"}
{"MOLECULE": "CC(=O)CC[C@H]1C(=O)N[C@@H](C(C)C)C(=O)N[C@@H](Cc2cccc(O)c2)C(=O)N2CCCC(N2)C(=O)O[C@H](/C(C)=C/C=C/C(=O)N(C)C2CCCCC2)C/C=C/C=C/[C@H](O)[C@H](C)[C@H]1O (some centres not stated)", "MEASURED_RESULT": 446}

Required: selectivity ratio, one value per molecule below.
1. CNC(=O)/C=C/C=C(\C)[C@@H]1C/C=C/C=C/[C@H](O)[C@H](C)[C@@H](O)[C@@H](CCC(C)=O)C(=O)N[C@@H](C(C)C)C(=O)N[C@@H](Cc2cccc(O)c2)C(=O)N2CCCC(N2)C(=O)O1 (stereo in doubt)
2. CC(=O)CC[C@H]1C(=O)N[C@@H](C(C)C)C(=O)N[C@@H](Cc2cccc(O)c2)C(=O)N2CCCC(N2)C(=O)O[C@H](/C(C)=C/C=C/C(=O)Nc2ccncc2)C/C=C/C=C/[C@H](O)[C@H](C)[C@H]1O (some centres not stated)
3. CC(=O)CC[C@H]1C(=O)N[C@@H](C(C)C)C(=O)N[C@@H](Cc2cccc(O)c2)C(=O)N2CCCC(N2)C(=O)O[C@H](/C(C)=C/C=C/C(=O)N2CCCCO2)C/C=C/C=C/[C@H](O)[C@H](C)[C@H]1O (some centres not stated)
4. CCN(CC)C(=O)/C=C/C=C(\C)[C@@H]1C/C=C/C=C/[C@H](O)[C@H](C)[C@@H](O)[C@@H](CCC(C)=O)C(=O)N[C@@H](C(C)C)C(=O)N[C@@H](Cc2cccc(O)c2)C(=O)N2CCCC(N2)C(=O)O1 (some centres not stated)
5. CC(=O)CC[C@H]1C(=O)N[C@@H](C(C)C)C(=O)N[C@@H](Cc2cccc(O)c2)C(=O)N2CCCC(N2)C(=O)O[C@H](/C(C)=C/C=C/C(=O)NC2CCCCC2)C/C=C/C=C/[C@H](O)[C@H](C)[C@H]1O (stereo in doubt)
6. CC(=O)CC[C@H]1C(=O)N[C@@H](C(C)C)C(=O)N[C@@H](Cc2cccc(O)c2)C(=O)N2CCCC(N2)C(=O)O[C@H](/C(C)=C/C=C/C(=O)Nc2ccccn2)C/C=C/C=C/[C@H](O)[C@H](C)[C@H]1O (stereo in doubt)
7. CC(=O)CC[C@H]1C(=O)N[C@@H](C(C)C)C(=O)N[C@@H](Cc2cccc(O)c2)C(=O)N2CCCC(N2)C(=O)O[C@H](/C(C)=C/C=C/C(=O)Nc2cccnc2)C/C=C/C=C/[C@H](O)[C@H](C)[C@H]1O (stereo in doubt)
8. CC(=O)CC[C@H]1C(=O)N[C@@H](C(C)C)C(=O)N[C@@H](Cc2cccc(O)c2)C(=O)N2CCCC(N2)C(=O)O[C@H](/C(C)=C/C=C/C(=O)NC(C)C)C/C=C/C=C/[C@H](O)[C@H](C)[C@H]1O (stereo in doubt)

1. > 13
2. > 12.4
3. > 800
4. > 490
5. > 298
6. 240
7. > 40
8. > 179

Data provenance is ChEMBL document CHEMBL3217729.
